Ref: patent US11542262B2

I'd appreciate it if you could supply IC50 values for the items below.
Target: PI3K gamma (Mus musculus, UniProt Q9JHG7)
Construct: endogenous in cells; host or cells: RAW264.7
Sequence (Q9JHG7 whole entry): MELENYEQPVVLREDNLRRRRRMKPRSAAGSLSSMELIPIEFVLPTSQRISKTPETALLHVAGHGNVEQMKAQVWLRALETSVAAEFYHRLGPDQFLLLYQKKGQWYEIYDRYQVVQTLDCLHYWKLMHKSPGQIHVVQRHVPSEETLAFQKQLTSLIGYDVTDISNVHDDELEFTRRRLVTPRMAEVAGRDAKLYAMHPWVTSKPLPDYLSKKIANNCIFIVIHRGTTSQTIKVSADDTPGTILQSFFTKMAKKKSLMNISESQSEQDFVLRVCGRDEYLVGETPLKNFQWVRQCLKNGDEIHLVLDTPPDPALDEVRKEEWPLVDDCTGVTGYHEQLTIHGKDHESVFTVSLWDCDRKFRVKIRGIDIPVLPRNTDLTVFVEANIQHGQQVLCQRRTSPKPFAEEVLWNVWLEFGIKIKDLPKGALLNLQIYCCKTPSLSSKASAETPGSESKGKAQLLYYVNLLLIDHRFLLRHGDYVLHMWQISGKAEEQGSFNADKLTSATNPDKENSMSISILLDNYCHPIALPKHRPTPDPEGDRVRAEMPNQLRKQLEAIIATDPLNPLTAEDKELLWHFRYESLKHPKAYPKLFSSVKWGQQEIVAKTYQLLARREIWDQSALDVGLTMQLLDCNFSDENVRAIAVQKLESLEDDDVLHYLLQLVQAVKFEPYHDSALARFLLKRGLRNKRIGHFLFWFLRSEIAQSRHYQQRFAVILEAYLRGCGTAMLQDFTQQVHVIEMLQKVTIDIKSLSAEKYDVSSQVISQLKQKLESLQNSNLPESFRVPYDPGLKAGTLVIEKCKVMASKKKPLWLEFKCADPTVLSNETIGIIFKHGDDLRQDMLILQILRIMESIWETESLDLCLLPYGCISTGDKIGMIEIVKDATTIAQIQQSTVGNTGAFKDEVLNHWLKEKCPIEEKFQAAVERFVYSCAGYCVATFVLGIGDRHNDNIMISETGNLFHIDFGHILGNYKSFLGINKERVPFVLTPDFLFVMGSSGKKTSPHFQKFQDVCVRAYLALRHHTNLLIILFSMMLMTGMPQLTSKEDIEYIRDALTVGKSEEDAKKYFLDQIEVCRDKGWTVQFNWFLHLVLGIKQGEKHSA
Sequence (Q5SW28 whole entry partner): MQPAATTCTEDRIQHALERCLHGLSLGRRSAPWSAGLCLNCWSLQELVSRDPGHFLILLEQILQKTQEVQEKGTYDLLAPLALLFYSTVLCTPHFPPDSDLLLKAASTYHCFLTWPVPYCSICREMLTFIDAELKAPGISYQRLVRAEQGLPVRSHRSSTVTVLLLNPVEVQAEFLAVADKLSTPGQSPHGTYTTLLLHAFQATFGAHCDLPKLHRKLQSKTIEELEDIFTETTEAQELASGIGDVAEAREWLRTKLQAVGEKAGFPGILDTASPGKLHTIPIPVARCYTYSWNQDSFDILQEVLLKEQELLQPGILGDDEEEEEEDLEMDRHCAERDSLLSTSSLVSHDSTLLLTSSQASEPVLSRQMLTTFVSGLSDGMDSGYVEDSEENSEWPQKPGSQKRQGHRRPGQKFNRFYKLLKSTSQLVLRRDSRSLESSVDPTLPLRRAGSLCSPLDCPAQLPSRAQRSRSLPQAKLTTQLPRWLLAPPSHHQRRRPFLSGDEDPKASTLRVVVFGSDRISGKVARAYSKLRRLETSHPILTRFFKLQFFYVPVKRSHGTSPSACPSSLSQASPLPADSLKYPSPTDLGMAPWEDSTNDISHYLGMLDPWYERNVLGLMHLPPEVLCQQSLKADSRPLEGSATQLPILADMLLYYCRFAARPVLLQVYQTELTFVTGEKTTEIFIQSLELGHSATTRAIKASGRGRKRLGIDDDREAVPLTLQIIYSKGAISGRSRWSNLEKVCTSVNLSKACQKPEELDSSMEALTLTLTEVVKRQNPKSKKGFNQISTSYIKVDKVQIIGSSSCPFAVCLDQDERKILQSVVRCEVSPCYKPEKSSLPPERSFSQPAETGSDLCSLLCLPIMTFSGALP
Assay: Raw264.7 cell assay: phosphorylation of AKT in C5a stimulated RAW264.7 cells (AlphaLISA)
Format: cell-based
Details: pAKT, read-out: PI3K gamma Raw264.7 cell (nM) cellular activity (IC50)
Description: This study aims to determine the inhibitory effect of compounds on PI3K gamma and PI3K delta in corresponding cell based assays. […] Phosphorylation of AKT in cells was determined using AlphaLISA technology from PerkinElmer. Raw264.7 cell assay: Prepare Passage 15 Raw264.7 cell and add 6 μL of 30K cells per well in 384-well plate by multidrop. […] Read AlphaLISA signal on Envision. […]
Reply with just the number (in nM).

Return IC50 (reported value) for this compound: CC(=O)Nc1nc(C)c(-c2cc3c(c(N4CC(O)C4)n2)C(=O)N([C@@H](C)C2CC2)C3)s1 [Compound 48]
14

Respond only with IC50 recorded for CC[S@@+]([O-])c1cc(-c2sc(NC(C)=O)nc2C)cc2c1C(=O)N([C@@H](C)C1CC1)C2 (racemic) [Compound 13]
22

Annotate the compound CC(=O)Nc1nc(C)c(-c2cc3c(c([S+]([O-])C(C)C)c2)C(=O)N([C@@H](C)C2CC2)C3)s1 (mixture of isomers) [Compound 14] with its measured IC50.
27

Name the recorded IC50 of the item CC(=O)Nc1nc(C)c(-c2cc3c(c(OC4COC4)n2)C(=O)N([C@@H](C)C2CC2)C3)s1 [Compound 52] in your answer.
12

# return recorded IC50 for input CC(=O)Nc1nc(C)c(-c2cc3c(c(CN4CCOCC4)n2)C(=O)N([C@@H](C)C2CC2)C3)s1 [Compound 54]
17

Give the measured IC50 for CC(=O)Nc1nc(C)c(-c2cc3c(c(N4CCCC4=O)n2)C(=O)N([C@@H](C)C2CC2)C3)s1 [Compound 25]
446

Specify reported IC50 for the compound shown: CC(=O)Nc1nc(C)c(-c2cc3c(c(N4CCN(C(C)=O)CC4)n2)C(=O)N([C@@H](C)C2CC2)C3)s1 [Compound 40]
6.3

Please give the documented IC50 of CC(=O)Nc1nc(C)c(-c2cc3c(c(NC(=O)N(C)C)n2)C(=O)N([C@@H](C)C2CC2)C3)s1 [Compound 28]
65

Query IC50 for CC(=O)Nc1nc(C)c(-c2cc3c(c(P(C)(C)=O)c2)C(=O)N([C@@H](C)C2CC2)C3)s1 [Compound 1]
315

----------
Target: PI3K gamma (Mus musculus, UniProt Q9JHG7)
Construct: endogenous in cells; host or cells: RAW264.7
Experiment: Raw264.7 cell assay: phosphorylation of AKT in C5a stimulated RAW264.7 cells (AlphaLISA)
Assay type: cell-based
Conditions: pAKT, read-out: PI3K gamma Raw264.7 cell (nM) cellular activity (IC50)
test.readout: log10(IC50) (log10 of the value in nM)
# log10 transformed; quantity=IC50; unit=nM

Please report log10(IC50) with PI3K gamma (Mus musculus, UniProt Q9JHG7) for item CC(=O)Nc1nc(C)c(-c2cc3c(c(NC(C)=O)n2)C(=O)N([C@@H](C)C2CC2)C3)s1 .
0.71

For PI3K gamma (Mus musculus, UniProt Q9JHG7), give log10(IC50) of the listed compound: CC(=O)Nc1nc(C)c(-c2cc3c(c(S(C)(=O)=O)n2)C(=O)N([C@@H](C)C2CC2)C3)s1
1.45

Answer with log10(IC50) of CC(=O)Nc1nc(C)c(-c2cc3c(c(N4CCOCC4)n2)C(=O)N([C@@H](C)C2CC2)C3)s1 measured for PI3K gamma (Mus musculus, UniProt Q9JHG7).
0.20

Answer with log10(IC50) of CC(=O)Nc1nc(C)c(-c2cc3c(c([S@](C)(=N)=O)c2)C(=O)N([C@@H](C)C2CC2)C3)s1 (racemic) measured for PI3K gamma (Mus musculus, UniProt Q9JHG7).
2.11

Report its log10(IC50) with PI3K gamma (Mus musculus, UniProt Q9JHG7) as the test system: CC(=O)Nc1nc(C)c(-c2cc3c(c(NS(C)(=O)=O)n2)C(=O)N([C@@H](C)C2CC2)C3)s1
0.63

Quote log10(IC50) with test system PI3K gamma (Mus musculus, UniProt Q9JHG7) for COc1nc(-c2sc(NC(C)=O)nc2C)cc2c1C(=O)N([C@@H](C)C1CC1)C2
0.40

Tell me its log10(IC50) on PI3K gamma (Mus musculus, UniProt Q9JHG7): CC(=O)Nc1nc(C)c(-c2cc3c(c(NS(=O)(=O)C4CC4)n2)C(=O)N([C@@H](C)C2CC2)C3)s1
0.34

Print PI3K gamma (Mus musculus, UniProt Q9JHG7) log10(IC50) for CC(=O)Nc1nc(C)c(-c2cc3c(c(N4CCS(=O)(=O)CC4)n2)C(=O)N([C@@H](C)C2CC2)C3)s1 .
0.97

Give log10(IC50); test system PI3K gamma (Mus musculus, UniProt Q9JHG7); compound CC(=O)Nc1nc(C)c(-c2cc3c(c(N4CC(S(C)(=O)=O)C4)n2)C(=O)N([C@@H](C)C2CC2)C3)s1
1.58

# lookup: PI3K gamma (Mus musculus, UniProt Q9JHG7) log10(IC50), key = CC(=O)Nc1nc(C)c(-c2cc3c(c(C(=O)N(C)C)n2)C(=O)N([C@@H](C)C2CC2)C3)s1
3.51

// fetch log10(IC50) for CC(=O)Nc1nc(C)c(-c2cc3c(c([S+](C)[O-])c2)C(=O)N(C(C)(C)C)C3)s1 (racemic) ; system: PI3K gamma (Mus musculus, UniProt Q9JHG7)
2.07

Identify measured log10(IC50) obtained with PI3K gamma (Mus musculus, UniProt Q9JHG7) for CC(=O)Nc1nc(C)c(-c2cc3c(c([S@@+](C)[O-])c2)C(=O)N([C@@H](C)C2CC2)C3)s1 (racemic) .
1.48

State log10(IC50) (PI3K gamma (Mus musculus, UniProt Q9JHG7)) of CC(=O)Nc1nc(C)c(-c2cc3c(c(C)n2)C(=O)N([C@@H](C)C2CC2)C3)s1 .
1.46

Lab note: PI3K gamma (Mus musculus, UniProt Q9JHG7) assay, enter log10(IC50) for CCS(=O)(=O)Nc1nc(-c2sc(NC(C)=O)nc2C)cc2c1C(=O)N([C@@H](C)C1CC1)C2 here
0.30
